Reference for the values: patent US10787462B2

measurement-target: human RIPK1 (1-375) (Homo sapiens)
Construct: human RIPK1 (1-375) gene; GST; made in house; host or cells: Sf-9 insect cells
Sequence (Q13546 1-375): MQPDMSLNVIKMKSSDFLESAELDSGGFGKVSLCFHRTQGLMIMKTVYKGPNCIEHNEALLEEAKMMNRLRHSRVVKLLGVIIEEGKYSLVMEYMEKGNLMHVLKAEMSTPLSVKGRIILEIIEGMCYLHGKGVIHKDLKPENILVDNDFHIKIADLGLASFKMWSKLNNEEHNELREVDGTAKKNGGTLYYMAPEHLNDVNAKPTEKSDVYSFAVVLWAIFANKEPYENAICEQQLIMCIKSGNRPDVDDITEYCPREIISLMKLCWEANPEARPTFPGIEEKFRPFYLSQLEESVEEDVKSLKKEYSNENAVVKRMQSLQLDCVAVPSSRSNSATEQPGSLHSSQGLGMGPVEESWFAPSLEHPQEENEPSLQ
measurement-protocol: Human RIPK1 enzyme inhibitory effect (ADP-Glo Kinase Assay)
Type: biochemical
applied-conditions: read-out: human RIPK1 enzyme inhibitory effect at 10 μM (% inhibition), 10 μM test compound; well without enzyme = 100% inhibition
Where a name gives a salt, the structure may show the parent alone.
metric: inhibition at 10 µM (%)

compound | measurement-target | number
CC1Cc2cn(Cc3ccccc3)nc2C(=O)N1[C@H]1COc2ccccc2N(C)C1=O (stereo partly shown) | human RIPK1 (1-375) (Homo sapiens) | 100
CCNC(=O)c1ccc2c(c1)OC[C@H](N1CCc3c(nn(Cc4ccccc4)c3Cl)C1=O)C(=O)N2C | human RIPK1 (1-375) (Homo sapiens) | 100
CNC(=O)c1ccc2c(c1)OC[C@H](N1CCc3cn(Cc4c(F)cccc4F)nc3C1=O)C(=O)N2C | human RIPK1 (1-375) (Homo sapiens) | 101
CN1C(=O)[C@@H](N2CCc3c(nn(Cc4ccccc4)c3Cl)C2=O)COc2cc(-c3cnn(C)c3)ccc21 | human RIPK1 (1-375) (Homo sapiens) | 100
CN1C(=O)[C@@H](N2CCc3c(nn(Cc4ccccc4)c3C#N)C2=O)COc2ccccc21 | human RIPK1 (1-375) (Homo sapiens) | 100
CN1C(=O)[C@@H](N2CCc3cn(Cc4cccnc4)nc3C2=O)COc2ccccc21 | human RIPK1 (1-375) (Homo sapiens) | 95
CN1C(=O)[C@@H](N2CCc3[nH]c(Cc4ccccc4)nc3C2=O)COc2ccccc21 [Example 55, trifluoroacetate] | human RIPK1 (1-375) (Homo sapiens) | 96

* * *

measurement-target: human RIPK1 (1-375) (Homo sapiens, UniProt Q13546)
Construct: human RIPK1 (1-375) gene; GST; made in house; host or cells: Sf-9 insect cells
measurement-protocol: Human RIPK1 enzyme inhibitory effect (ADP-Glo Kinase Assay)
Format: biochemical
applied-conditions: read-out: human RIPK1 enzyme inhibitory effect at 10 μM (% inhibition), 10 μM test compound; well without enzyme = 100% inhibition
metric: inhibition at 10 µM (%)

compound | inhibition at 10 µM [%]
CN1C(=O)[C@@H](N2CCc3cn(CC4(C)COC4)nc3C2=O)COc2ccccc21 | 78
CN1C(=O)[C@@H](N2CCc3c(nn(Cc4ccccc4)c3Cl)C2=O)COc2ccc(C#N)cc21 | 101
CN1C(=O)[C@@H](N2CCc3c(nn(Cc4ccccc4)c3OC(F)F)C2=O)COc2cc(C#N)ccc21 | 98
CN1C(=O)[C@@H](N2CCc3c(nn(Cc4ccccc4)c3C3CC3)C2=O)COc2ccccc21 | 100
Cc1ccccc1Cn1cc2c(n1)C(=O)N([C@H]1COc3ccccc3N(C)C1=O)CC2 | 100
CN1C(=O)C(N2CCc3c(nn(Cc4ccccc4F)c3Cl)C2=O)CCc2nn(C)cc21 (centres unmarked) | 97
CNC(=O)c1ccc2c(c1)OC[C@H](N1CCc3c(nn(Cc4ccccc4F)c3C)C1=O)C(=O)N2C | 101
CNC(=O)c1ccc2c(c1)OC[C@H](N1CCc3c(nn(Cc4c(F)cccc4F)c3Cl)C1=O)C(=O)N2C | 100
